FYI, the data here is from PubChem BioAssay (EPA / NIEHS).

Read-out: Monokine induced gamma interferon (MIG), CXCL9 (gene 4283)
Test: BSK_hDFCGF_MIG: BioMAP Diversity Plus: hDFCGF Assay for Monokine induced gamma interferon (MIG) Biomarker Activity (AID 2283063)
Settings: primary human foreskin fibroblasts; actives raise or lower the signal
Procedure: BSK_hDFCGF is a cell-based, multiplexed-readout assay that uses foreskin fibroblast, a human skin primary cell, with measurements taken at 24 hours after chemical dosing in a 96-well plate.BSK_hDFCGF_MIG is an assay component measured in the BSK_hDFCGF assay. It measures MIG antibody related to regulation of gene expression using ELISA technology.Data from the assay component BSK_hDFCGF_MIG was analyzed into 1 assay endpoint. […]
The source made the active and inactive calls. How the source made its calls: active means hit-call score of the fitted dose curve at least 0.9, where 1 is the maximum; inactive means score below 0.9.
Write down one outcome, taken from active, inactive

Called result for "C/C=C\C/C=C/CCCCCCCCOC(C)=O"
active

Called result for "O=Nc1ccc(O)cc1"
inactive

Called result for "CCCCNc1ccc(NCCCC)c2c1C(=O)c1ccccc1C2=O"
inactive

Called result for "O=C(c1ccc(O)cc1)c1ccc(O)cc1O"
inactive

Called result for "CCO[Si](CCCN=C=O)(OCC)OCC"
inactive

Called result for CCCCC(CC)COCC1CO1 (stereo unspecified)
inactive

Called result for C=CC(=O)OCC(Br)CBr (stereo unspecified)
active

Called result for "CC(C)(c1cc(Br)c(OCCO)c(Br)c1)c1cc(Br)c(OCCO)c(Br)c1"
active

Called result for C#CC1(O)CC[C@H]2[C@@H]3CCC4=CCCC[C@@H]4[C@H]3CC[C@@]21C (stereo partly specified)
active

Called result for "C=CCOc1c(Br)cc(Br)cc1Br"
active

Called result for CC1OC1C1CCC2(C)OC2C1 (stereo unspecified)
inactive

Called result for "O=C1CCCN1CCO"
inactive

Called result for "C=CC=CC=CCCCCC"
inactive

Called result for "S=C(NC1CCCCC1)NC1CCCCC1"
inactive

Called result for "COc1ccc2nc(N)sc2c1"
inactive

Called result for "O=C(Cl)c1cc(C(=O)Cl)cc(C(=O)Cl)c1"
active

Called result for "c1ccc(-c2ccccn2)nc1"
inactive

Called result for "C=C[Si](OC(C)=O)(OC(C)=O)OC(C)=O"
inactive

Called result for "N#[N+]c1ccc2c(S(=O)(=O)[O-])cccc2c1O"
inactive

Called result for "CCO[Si](C)(OCC)OCC"
inactive

Called result for "CCCCCCCCCCCCCCCC[N+](C)(C)CC"
active
